FYI, the data here is from PubChem BioAssay AID1159580.

testDescription: chemical genetic growth profiling, strain panel (AID 1159580);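 also: tested at 20 µM; growth read once vehicle control cultures reached saturation at 30 °C; 1 = growth at the plate median or of vehicle wells; lower values mean less growth of the strain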
measurementSetup: S. cerevisiae deletion strains, growth OD, locus YEL061C, strain CIN8 (second series), active compounds read low
The campaign covered roughly 5,500 compounds. About 2,000 (36%) were called active. Not shown: some 18% with an inconclusive outcome. Some of the results follow.
Below, each of the molecules is paired with its reported normalized growth value.
reportedEndpoint: normalized growth

>>> df
                                   molecule  quantitativeresult
0                            COc1c(O)cccc1O                1.02
1  CC(=O)OCC(=O)[C@H]1CCC2C3CC=C4C[C@@H](O)CC[C@]4(C)C3CC[C@@]21C (stereo not given in full)               0.945
2  CC(=O)[C@H]1CCC2C3CC=C4C[C@@H](O)CC[C@]4(C)C3CC[C@@]21C (stereo not given in full)                1.01
3  CCC(CCC(C)[C@H]1CCC2C3CC=C4C[C@@H](O)CC[C@]4(C)C3CC[C@@]21C)C(C)C (stereo not given in full)                1.02
4  CC[N+]1(C)CCCC(OC(=O)C(O)(c2ccccc2)c2ccccc2)C1 (stereo not given)                1.02
5  CCC(/C=C/[C@@H](C)[C@H]1CCC2C3CC=C4C[C@@H](O)CC[C@]4(C)C3CC[C@@]21C)C(C)C (stereo not given in full)               0.979
6  CCCN1C[C@H](CSC)C[C@@H]2c3cccc4[nH]cc(c34)C[C@H]21                1.02
7  [N-]=[N+]=CC(=O)OCC(N)C(=O)O (stereo not given)                   1
8  CC(=O)OCC(=O)[C@@]1(O)CCC2C3CC[C@@H]4C[C@H](O)CC[C@]4(C)C3C(=O)C[C@@]21C (stereo not given in full)                1.01
9   C=C1C(N)CC2CC1C2(C)C (stereo not given)                1.01

###

testDescription: chemical genetic growth profiling, strain panel (AID 1159580)
measurementSetup: S. cerevisiae deletion strains, growth OD, locus YLR418C, strain cdc73
Among all 5,500 compounds or so, about 2,000 (36%) were called active. Not shown: some 18% with an inconclusive outcome. Cut-off read from the data, not from the text of the source: active = normalized growth mostly below about 0.91 (no sharp cut-off); inconclusive = no clear call, values can overlap the other calls; inactive = mostly above about 0.92. This is one part of the list.
Outcome codes: True (active), False (inactive)

>>> print(df.to_string())
                                    compound  labelclass
 0  Cc1cc(=O)c2c(o1)-c1c(cc(O)c(O)c1C(=O)O)OC2       False
 1  CC(=O)N(O)CCCCCNC(=O)CCC(=O)N(O)CCCCCNC(=O)CCC(=O)N(O)CCCCCN       False
 2                   NC(=O)CC[C@@H](N)C(=O)O       False
 3           CN1CCc2c(c3ccccc3n2Cc2ccccc2)C1        True
 4  COC(=O)C[C@H]1C(C)(C)C(=O)[C@@H]2CC3=C4CC(OC)O[C@@H](c5ccoc5)[C@]4(C)CCC3[C@@]1(C)C2=O (stereo partly drawn)       False
 5  Cc1cc(=O)c2c(O)c3c(cc2o1)OCC(C)CC3 (stereo not drawn)        True
 6       COc1cccc(-c2cc(=O)c3ccc(OC)cc3o2)c1       False
 7  CSc1ccc2c(c1)C(N1CCN(C)CC1)Cc1ccccc1S2 (stereo not drawn)        True
 8  CCC(CCC(C)[C@H]1CCC2C3CC=C4C[C@@H](O)CC[C@]4(C)C3CC[C@@]21C)C(C)C (stereo partly drawn)       False
 9          CC(=O)Nc1ccc(OC(=O)c2ccccc2O)cc1        True
10         COc1ccc2c(=O)cc(-c3ccccc3OC)oc2c1        True
11  O=C1CC[C@]23C=CC(=O)NCCCCNCCCNC(=O)/C=C/c4ccc(c2c4)O[C@@H]3C1       False
12  CC1(C)O[C@@H]2CC3C4CCC5=CC(=O)C=C[C@]5(C)[C@@]4(F)[C@@H](O)C[C@]3(C)[C@]2(C(=O)CO)O1 (stereo partly drawn)       False
13  CN1CCN2c3ccccc3Cc3ccccc3C2C1 (stereo not drawn)       False
14  CC(=O)Oc1c(-c2ccccc2)oc2c(CC=C(C)C)c3c(c(OC(C)=O)c2c1=O)C=CC(C)(C)O3        True
15            COc1ccc(C(=O)/C=C/c2ccccc2)cc1        True
16             O=C(/C=C/c1ccccc1)c1ccc(O)cc1        True
17  C#CCOS(=O)OC1CCCCC1Oc1ccc(C(C)(C)C)cc1 (stereo not drawn)       False
18              Nc1ccc(C(=O)Oc2ccccc2)c(O)c1        True
19                        CC(=O)Nc1ccc(O)cc1       False
20  CC(C)=CCc1c2c(c(O)c3c(=O)c(O)c(-c4ccccc4)oc13)C=CC(C)(C)O2        True
21  CCn1cc(C(=O)O)c(=O)c2cc(F)c(N3CCNCC3)cc21       False
22  C[n+]1cc2c3c(ccc2c2ccc4cc5c(cc4c21)OCO5)OCO3        True

###

testDescription: chemical genetic growth profiling, strain panel (AID 1159580);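 also: tested at 20 µM; growth read once vehicle control cultures reached saturation at 30 °C; 1 = growth at the plate median or of vehicle wells; lower values mean less growth of the strain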
measurementSetup: S. cerevisiae deletion strains, growth OD, locus YHR079C, strain IRE1 (second series)
In all, about 5,500 compounds went through this assay and about 2,000 (36%) were called active. Roughly 18% stayed inconclusive and do not appear here. Rule as the data show it: active = normalized growth mostly below about 0.91 (no sharp cut-off); inconclusive = no clear call, values can overlap the other calls; inactive = mostly above about 0.92. This is one part of the list.
Outcome codes: y for active, n for inactive

molecule	labelClass
CN1CCN2c3ccccc3Cc3ccccc3C2C1 (stereo not drawn)	n
Cc1cc(=O)c2c(O)c3c(cc2o1)OC(C)(C)CC3	n
C[C@@H]1CC[C@@]2(OC1)OC1C(O)C3C4CC[C@H]5C[C@H](O[C@@H]6O[C@H](CO)[C@H](O[C@@H]7O[C@H](CO)[C@@H](O)[C@H](O[C@@H]8OC[C@@H](O)[C@H](O)[C@H]8O)[C@H]7O[C@@H]7O[C@H](CO)[C@H](O)[C@H](O[C@@H]8O[C@H](CO)[C@@H](O)[C@H](O)[C@H]8O)[C@H]7O)[C@H](O)[C@H]6O)[C@H](O)C[C@]5(C)C4CC[C@]3(C)C1[C@@H]2C (stereo partly drawn)	y
CC1=CCc2c(cc3oc(C)cc(=O)c3c2O)OC1	y
O=c1[nH]c2cc(Cl)c(Cl)cc2[nH]c1=O	n
Cc1cc(=O)c2c(O)c3c(cc2o1)OCC(C)CC3 (stereo not drawn)	y
CC(=O)Oc1c(-c2ccccc2)oc2c(CC=C(C)C)c3c(c(OC(C)=O)c2c1=O)C=CC(C)(C)O3	n
Cc1cc2cc3c(C)cc(=O)oc3c(C)c2o1	n

###

testDescription: chemical genetic growth profiling, strain panel (AID 1159580);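 also: tested at 20 µM; growth read once vehicle control cultures reached saturation at 30 °C; 1 = growth at the plate median or of vehicle wells; lower values mean less growth of the strain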
measurementSetup: S. cerevisiae deletion strains, growth OD, locus YIL073C, strain SPO22, active compounds read low
The whole screen tested about 5,500 compounds, of which about 2,000 (36%) were called active. Roughly 18% stayed inconclusive and do not appear here. The list shows a part of the results.
reportedEndpoint: normalized growth

>>> print(df.to_string())
                                   compound  quantitativeresult
0  C=C1C2CC[C@@]3(C)[C@H](c4ccoc4)OC(=O)C[C@]13O[C@H]1CC(=O)C(C)(C)[C@H](C(O)C(=O)OC)[C@@]21C (stereo not given in full)                1.03
1         CC1NC(=O)NC1=O (stereo not given)                1.07
2   C=C1C(N)CC2CC1C2(C)C (stereo not given)                1.06
3  COc1cccc2c1cc([N+](=O)[O-])c1c(C(=O)O)cc3c(c12)OCO3                1.03
4  CC1(C)O[C@@H]2CC3C4CCC5=CC(=O)C=C[C@]5(C)[C@@]4(F)[C@@H](O)C[C@]3(C)[C@]2(C(=O)CO)O1 (stereo not given in full)                1.05

###

testDescription: chemical genetic growth profiling, strain panel (AID 1159580);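 also: tested at 20 µM; growth read once vehicle control cultures reached saturation at 30 °C; 1 = growth at the plate median or of vehicle wells; lower values mean less growth of the strain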
measurementSetup: S. cerevisiae deletion strains, growth OD, locus YBR231C, strain swc5, active compounds read low
The whole screen tested about 5,500 compounds, of which about 2,000 (36%) were called active. About 18% were inconclusive and are not listed. The list shows a part of the results.

molecule	normalized growth
CCN1CCN(c2cc3c(cc2F)c(=O)c(C(=O)O)cn3C2CC2)CC1	1.02
CC1=NCCc2c1[nH]c1cc(O)ccc21	1.02
NCCc1ccc(O)cc1	0.961
CCCCCCc1ccc(O)cc1O	0.865
C[C@@H]1CC[C@@]2(OC1)OC1C(O)C3C4CC[C@H]5C[C@H](O[C@@H]6O[C@H](CO)[C@H](O[C@@H]7O[C@H](CO)[C@@H](O)[C@H](O[C@@H]8OC[C@@H](O)[C@H](O)[C@H]8O)[C@H]7O[C@@H]7O[C@H](CO)[C@H](O)[C@H](O[C@@H]8O[C@H](CO)[C@@H](O)[C@H](O)[C@H]8O)[C@H]7O)[C@H](O)[C@H]6O)[C@H](O)C[C@]5(C)C4CC[C@]3(C)C1[C@@H]2C (stereo partly drawn)	0.99
CCCCCCCCCc1ccc(O)cc1	0.0635
CCn1cc(C(=O)O)c(=O)c2cc(F)c(N3CCNCC3)cc21	0.986
CC[C@]12C=CCN3CC[C@@]4(c5ccc(OC)cc5N(C)C4[C@@](O)(C(=O)OC)[C@@H]1OC(C)=O)[C@@H]32 (stereo partly drawn)	0.996
